procedure-text: Half life in rat at 5 mg/kg, po and 2 mg/kg, iv
Type: ADME, organism-based
stated-conditions: in vivo
quantity-measured: half-life

In [3]: df
Out[3]:
                               input_smiles  quantity_measured  reported
0  COc1cc2ncnc(Nc3cccc(Cl)c3F)c2cc1CN(C)[C@@H](C)C(N)=O          half-life     4.8 h
1  COc1cc2ncnc(Nc3cccc(Cl)c3F)c2cc1CN1CCC[C@H]1C(N)=O          half-life     6.6 h
2  COc1cc2ncnc(Nc3cccc(Cl)c3F)c2cc1CN(C)[C@H](C)C(N)=O          half-life     4.3 h

###

test-system: Mitogen-activated protein kinase 1 (Homo sapiens)
Sequence (P28482 whole entry): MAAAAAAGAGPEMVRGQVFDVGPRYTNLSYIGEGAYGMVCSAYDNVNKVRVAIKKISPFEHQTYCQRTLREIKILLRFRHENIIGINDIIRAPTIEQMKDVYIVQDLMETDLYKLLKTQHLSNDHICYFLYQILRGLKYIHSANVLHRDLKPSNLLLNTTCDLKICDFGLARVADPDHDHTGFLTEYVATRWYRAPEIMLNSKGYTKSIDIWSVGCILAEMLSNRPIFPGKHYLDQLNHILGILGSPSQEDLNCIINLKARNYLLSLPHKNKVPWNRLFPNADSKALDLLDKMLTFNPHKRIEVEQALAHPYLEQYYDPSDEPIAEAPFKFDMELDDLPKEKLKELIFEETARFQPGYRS
procedure-text: Inhibition of MAPK
quantity-measured: IC50

In [3]: df
Out[3]:
                                    compound  reported
 0  COc1cc2ncnc(Nc3ccc(F)c(Cl)c3)c2cc1CN1CCC[C@@H]1C(N)=O   > 10 µM
 1  COc1cc2ncnc(Nc3cccc(Cl)c3F)c2cc1CN(C)[C@H](C)C(=O)N(C)C   > 10 µM
 2  COc1cc2ncnc(Nc3cccc(Cl)c3F)c2cc1CN(C)C1(C(N)=O)CCN(C)CC1   > 10 µM
 3  COc1cc2ncnc(Nc3cccc(Cl)c3F)c2cc1CN(C(C)C)[C@@H](C)C(N)=O   > 10 µM
 4  COc1cc2ncnc(Nc3cccc(Cl)c3F)c2cc1CN(C)C1(C(N)=O)CCN(C(C)C)CC1   > 10 µM
 5  COc1cc2ncnc(Nc3cccc(Cl)c3F)c2cc1CN1CC[C@H](C(N)=O)C1   > 10 µM
 6  COCCN1CC(C(N)=O)(N(C)Cc2cc3c(Nc4cccc(Cl)c4F)ncnc3cc2OC)C1   > 10 µM
 7  CNC(=O)[C@H]1CCCN1Cc1cc2c(Nc3cccc(Cl)c3F)ncnc2cc1OC   > 10 µM
 8  COc1cc2ncnc(Nc3cccc(Cl)c3F)c2cc1CN1CC(C(N)=O)C1   > 10 µM
 9  COc1cc2ncnc(Nc3cccc(Cl)c3F)c2cc1CN1CCOCC1C(N)=O (configuration not stated)   > 10 µM
10  COc1cc2ncnc(Nc3cccc(Cl)c3F)c2cc1CN(C)C1(C(N)=O)CN(C)C1   > 10 µM
11  COCC[C@@H](C(N)=O)N(C)Cc1cc2c(Nc3cccc(Cl)c3F)ncnc2cc1OC   > 10 µM
12  COc1cc2ncnc(Nc3cccc(Cl)c3F)c2cc1CN(C)[C@@H](CO)C(N)=O   > 10 µM
13  COc1cc2ncnc(Nc3cccc(Cl)c3F)c2cc1CN1CCCC[C@@H]1C(N)=O   > 10 µM
14  COC[C@@H](C(N)=O)N(C)Cc1cc2c(Nc3cccc(Cl)c3F)ncnc2cc1OC   > 10 µM
15  COc1cc2ncnc(Nc3ccc(F)c(Cl)c3)c2cc1CN1CCC[C@H]1C(N)=O   > 10 µM
16  COc1cc2ncnc(Nc3cccc(Cl)c3F)c2cc1CN(C)[C@H](C)C(N)=O   > 10 µM
17  COc1cc2ncnc(Nc3cccc(Cl)c3F)c2cc1CN(C)[C@@H](C)C(N)=O   > 10 µM
18  COc1cc2ncnc(Nc3cccc(Cl)c3F)c2cc1CN(C)C1(C(N)=O)CN(C(C)C)C1   > 10 µM
19  COc1cc2ncnc(Nc3cccc(Cl)c3F)c2cc1CN1CCN(C)CC1C(N)=O (configuration not stated)   > 10 µM
20  COc1cc2ncnc(Nc3cccc(Cl)c3F)c2cc1CN1C[C@H](OC)C[C@@H]1C(N)=O   > 10 µM
21  COc1cc2ncnc(Nc3cccc(Cl)c3F)c2cc1CN(C)C1CCNC1=O (configuration not stated)   > 10 µM

###

procedure-text: Volume of distribution in dog at 2 mg/kg, po and 1 mg/kg, iv
Format: ADME, organism-based, Canis lupus familiaris
stated-conditions: in vivo, read-out: Vdss
quantity-measured: Vd (L/kg)

>>> df
                               input_smiles  unit_label  reported
0  COc1cc2ncnc(Nc3cccc(Cl)c3F)c2cc1CN1CCC[C@H]1C(N)=O        L/kg       0.4
1  COc1cc2ncnc(Nc3cccc(Cl)c3F)c2cc1CN(C)[C@@H](C)C(N)=O        L/kg       0.4

###

procedure-text: Dissociation constant, pKa of the compound
Format: physicochemical
# pKa >= 8 gives 1 (yes), anything below gives 0 (no)

>>> df
                               input_smiles  category
0  COc1cc2ncnc(Nc3cccc(Cl)c3F)c2cc1CN(C)C1(C(N)=O)CCN(C)CC1   1 (yes)
1  COc1cc2ncnc(Nc3cccc(Cl)c3F)c2cc1CN(C)C1(C(N)=O)CCN(C(C)C)CC1   1 (yes)
2  COc1cc2ncnc(Nc3cccc(Cl)c3F)c2cc1CN(C)[C@H](C)C(N)=O    0 (no)
3  COCCN1CC(C(N)=O)(N(C)Cc2cc3c(Nc4cccc(Cl)c4F)ncnc3cc2OC)C1    0 (no)

###

Each record here notes measured IC50.
procedure-text: Inhibition of CDK
quantity-measured: IC50

>>> print(df.to_string())
                                input_smiles  reported
 0  COCCN1CC(C(N)=O)(N(C)Cc2cc3c(Nc4cccc(Cl)c4F)ncnc3cc2OC)C1   > 10 µM
 1  COc1cc2ncnc(Nc3cccc(Cl)c3F)c2cc1CN(C)[C@@H](C)C(N)=O   > 10 µM
 2  COc1cc2ncnc(Nc3cccc(Cl)c3F)c2cc1CN1CCC[C@H]1CC(N)=O   > 10 µM
 3  COc1cc2ncnc(Nc3cccc(Cl)c3F)c2cc1CN(C)C1(C(N)=O)CN(C)C1   > 10 µM
 4  COc1cc2ncnc(Nc3cccc(Cl)c3F)c2cc1CN(C)[C@H](C)C(N)=O   > 10 µM
 5  CNC(=O)[C@@H](C)N(C)Cc1cc2c(Nc3cccc(Cl)c3F)ncnc2cc1OC   > 10 µM
 6  COc1cc2ncnc(Nc3cccc(Cl)c3F)c2cc1CN1CCCC[C@@H]1C(N)=O   > 10 µM
 7  COc1cc2ncnc(Nc3cccc(Cl)c3F)c2cc1CN1CCC[C@H]1C(N)=O   > 10 µM
 8  COc1cc2ncnc(Nc3cccc(Cl)c3F)c2cc1CN(C)[C@@H](CN(C)C)C(N)=O   > 10 µM
 9  COc1cc2ncnc(Nc3ccc(F)c(Cl)c3)c2cc1CN1CCC[C@H]1C(N)=O   > 10 µM
10  COc1cc2ncnc(Nc3cccc(Cl)c3F)c2cc1CN(C)C1(C(N)=O)CCN(C)CC1   > 10 µM
11  COCC[C@@H](C(N)=O)N(C)Cc1cc2c(Nc3cccc(Cl)c3F)ncnc2cc1OC   > 10 µM
12  COc1cc2ncnc(Nc3ccc(F)c(Cl)c3)c2cc1CN1CCC[C@@H]1C(N)=O   > 10 µM
13  COc1cc2ncnc(Nc3cccc(Cl)c3F)c2cc1CN1CCC[C@@H]1C(N)=O   > 10 µM

###

procedure-text: Percent of unbound drug in rat plasma
Assay type: ADME, organism-based
Each record here notes measured fraction unbound.
quantity-measured: fraction unbound

>>> df
                               input_smiles  reported
0  COc1cc2ncnc(Nc3cccc(Cl)c3F)c2cc1CN(C)[C@H](C)C(N)=O      0.06
1  COc1cc2ncnc(Nc3cccc(Cl)c3F)c2cc1CN1CCC[C@H]1C(N)=O     0.037
2  COc1cc2ncnc(Nc3cccc(Cl)c3F)c2cc1CN(C)[C@@H](C)C(N)=O     0.065

###

procedure-text: Bioavailability in rat at 5 mg/kg, po and 2 mg/kg, iv
Assay type: ADME, organism-based
stated-conditions: in vivo
Each record here notes measured bioavailability.
quantity-measured: bioavailability (%)

>>> print(df.to_string())
                               input_smiles  reported
0  COc1cc2ncnc(Nc3cccc(Cl)c3F)c2cc1CN(C)[C@@H](C)C(N)=O        75
1  COc1cc2ncnc(Nc3cccc(Cl)c3F)c2cc1CN(C)[C@H](C)C(N)=O        58
2  COc1cc2ncnc(Nc3cccc(Cl)c3F)c2cc1CN1CCC[C@H]1C(N)=O       111

###

Each record here notes measured Papp A→B.
procedure-text: Apparent permeability from apical to basolateral side of the Caco-2 cell
Assay type: ADME, cell-based
stated-conditions: human, read-out: permeability
quantity-measured: Papp A→B

>>> print(df.to_string())
                               input_smiles         reported
0  COc1cc2ncnc(Nc3cccc(Cl)c3F)c2cc1CN(C)[C@@H](C)C(N)=O  > 13 ×10⁻⁶ cm/s
1  COc1cc2ncnc(Nc3cccc(Cl)c3F)c2cc1CN(C)[C@H](C)C(N)=O  > 13 ×10⁻⁶ cm/s
2  COc1cc2ncnc(Nc3cccc(Cl)c3F)c2cc1CN1CCC[C@H]1C(N)=O  > 13 ×10⁻⁶ cm/s
